Target: T1, His9-hMSR1 (human MSR1 extracellular domain) (Homo sapiens, UniProt P21757)
T1 construct: human MSR1 extracellular domain expressed with a N-terminal nonahistidine tag; His9 (nonahistidine) (N); purchased R&D Systems 2708-MS
T1 sequence (P21757 77-451 limits assumed): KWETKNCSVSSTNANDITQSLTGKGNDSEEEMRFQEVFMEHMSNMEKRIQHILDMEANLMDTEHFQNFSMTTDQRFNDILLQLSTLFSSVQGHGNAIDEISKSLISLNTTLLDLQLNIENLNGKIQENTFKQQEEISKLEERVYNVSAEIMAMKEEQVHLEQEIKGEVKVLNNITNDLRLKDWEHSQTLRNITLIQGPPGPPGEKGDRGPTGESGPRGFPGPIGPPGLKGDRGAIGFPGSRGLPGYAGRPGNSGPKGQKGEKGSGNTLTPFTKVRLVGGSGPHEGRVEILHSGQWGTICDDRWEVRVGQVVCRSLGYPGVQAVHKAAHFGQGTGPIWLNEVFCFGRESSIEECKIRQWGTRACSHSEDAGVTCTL
Assay: Biacore surface plasmon resonance binding kinetics of anti-MSR1 mAbs, antibody-capture format
Conditions: 25° C.; analyte His9-hMSR1; antibody-capture format; NB = no binding observed
Measurement Type: ka (M⁻¹ s⁻¹)
Kindly provide the numeric value in M⁻¹ s⁻¹ only, without the unit symbol.

So, H1H21227N: "anti-MSR1 antibodies ... (21227N, 21231N, 21234N) were produced with the original human Fcγ portion"; "H1H" = human IgG1 Fc (antibody, V domains shown, human IgG1 Fc, "anti-MSR1 antibodies ; (21227N, 21231N, 21234N) were produced with the original human Fcγ portion"; "H1H" = human IgG1 Fc) VH: QVQLVQSGAEVKKPGASVKVSCKVSGYTLTELSIHWVRQVPGKGLEWMGGFDPEEGETIFAQEFRDRVTLTEDTSPDTAYMELSSLKSEDAAVYYCTTPRYCNNGICYDYWGQGTLVTVSS VL: DIQMTQSPSSLSASVGDRVTITCRASQSISNYLNWYQQKPGKAPKLLIYTASSLQSGVPSRFSGSGSGTDFTLTISSLQTEDFATYYCQQSYSNFPITFGQGTRLEIKR ? Its ka was 1.2e+06

We next turn to a different molecule, shown below.
ka recorded for this molecule, H1H21227N-N297Q: "modified versions of 21227N (H1H21227N-N297Q and H1H21227N-N297D)"; anti-MSR1 antibody "with a N297Q single point mutation" (antibody, V domains shown) VH: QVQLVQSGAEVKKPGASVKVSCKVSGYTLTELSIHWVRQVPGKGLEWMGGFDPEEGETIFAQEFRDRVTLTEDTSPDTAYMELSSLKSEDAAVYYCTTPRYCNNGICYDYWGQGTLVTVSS VL: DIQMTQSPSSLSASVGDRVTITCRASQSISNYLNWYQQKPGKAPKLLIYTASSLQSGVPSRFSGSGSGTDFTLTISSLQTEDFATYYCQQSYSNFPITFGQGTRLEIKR , is 1.23e+06
